This listing pairs molecules with measured z-score.
Assay: basal MM1S mitochondrial membrane potential changes, profiling panel, cell-based, JC-1 fluorescence, 24 h, 100 nL compound (AID 1170); also: test concentration not given here
Conditions: higher = more signal
The reply should be a number, written without any unit.

{"columns": ["SMILES RECORD", "z-score"],
 "data": [
  ["CCOC(=O)C[C@H]1[C@H](OC(=O)Cc2ccc3c(c2)OCO3)[C@@H](NC(=O)c2ccc3ccccc3c2)c2cc(OCCCO)ccc2N1C(=O)Cc1ccc(OC)cc1", -1.1],
  ["CO[C@H]1COC(=O)CC=C[C@H](C)[C@@H](OC)COC(=O)CC=C[C@@H]1C", 0.758],
  ["COc1ccc([Si](C)(C)[C@H]2[C@H](CC(=O)N(CCO)Cc3ccccc3)O[C@@]3(C(=O)N(C)c4ccccc43)[C@@H]2C)cc1", -0.176],
  ["CCCCCCc1nc(C2CC2)c(C)c2c1[Si](C(C)C)(C(C)C)OC2", 0.419],
  ["C[C@@H]1C=CCC(=O)OC[C@H]2O[C@@H](C=C[C@@H]2O)[C@H](C)C=CCC(=O)OC[C@H]2O[C@H]1C=C[C@@H]2O", 0.92]
]}

Would you mind telling me what z-score value was observed for C=C(CCCC)/C(=C/C[C@@H](OC(=O)c1ccncc1)c1cccc(OCCO)c1)c1cc(C(=O)OC)ccc1OC ?
-0.132

Which z-score value is on record for O=C1C[C@@](C(=O)NC2CC2)(c2ccc([N+](=O)[O-])cc2)[C@@H](c2ccc(CO)cc2I)N1CC12CC3CC(CC(C3)C1)C2 ?
-2.4

====

Assay: binders of probe aFSTL3 on microarray, primary screen, stem cell growth factor project, biochemical, small-molecule microarray, fluorescence 635/667 (AID 1064);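 also: measures binding of the biotinylated anti-FSTL3 antibody to printed compounds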
Conditions: higher = more signal
The following ranges of composite z-score define the classes used here: bottom range (below -0.2), center range (-0.2 to below 0.3), top range (0.3 or more)

Categorize the following entry: CCOC(=O)[C@H]1C/C=C/C[C@H](C(=O)OCC)C(=O)O[C@H]2[C@@H](OC)O[C@H](CO)[C@@H](OC(=O)Nc3ccc(Br)cc3)[C@@H]2OC1=O
top range

Into which category would you place O=[N+]([O-])c1ccc(C[n+]2ccc3ccc(O)cc3c2)o1 ?
bottom range

The entry to classify is COc1ccc([Si](C)(C)[C@H]2[C@H](CC(=O)N(CCO)Cc3ccccc3)O[C@@]3(C(=O)N(C)c4ccccc43)[C@@H]2C)cc1 ; which class holds it?
bottom range

====

Test: E. coli growth modulation, two-sided OD650, primary screen, E. coli filamentation project, strain DRC41, 24 h (AID 1093);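 also: MC1000 strain lacking acrAB efflux and sulA so SOS filamentation is blocked; test concentration not given here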
Details: OD650, 24 h, higher = more signal, called active from +8 up or from −8 down
Kindly note that classification relies on z-score with these boundaries: Low = under 0.5, Medium = from 0.5 up to 1, High = 1 and over

These recorded examples may help you get a feel for the data.
{"columns": ["MOLECULE", "LABEL CLASS"],
 "data": [
  ["C[C@H]1NC(=O)[C@@H](C)NC(=O)[C@@]23C(=O)N[C@@H](Cc4ccccc4)C2[C@H](C)[C@@]2(C)O[C@H]2C3/C=C/C/C=C\\CNC1=O (stereo partly drawn)", "High"],
  ["CCOC(=O)C[C@H]1[C@H](OC(=O)c2cc3ccccc3oc2=O)[C@@H](NC(=O)c2ccc3ccccc3c2)c2cc(OCCCO)ccc2N1C(=O)c1ccc2ccccc2n1", "High"],
  ["O=C(O)[C@@H]1Cc2c([nH]c3ccccc23)[C@@H](c2ccccc2)N1", "Low"],
  ["C=C(CCCC)/C(=C/C[C@@H](OC(=O)c1ccncc1)c1cccc(OCCO)c1)c1cc(C(=O)OC)ccc1OC", "High"],
  ["COCCOC(=O)N1C(=O)[C@@]2(c3cc(C#CCNC(N)=O)ccc31)[C@H](C(=O)N1CCCCCCC1)[C@H]1C(=O)O[C@H](c3ccccc3)[C@H](c3ccccc3)N1[C@@H]2c1ccccc1OCCO", "Low"]
]}

For CO[C@H]1O[C@H](CO)[C@@H](OC(=O)Nc2ccccc2)[C@H](OC(=O)Nc2ccc3c(c2)OCO3)[C@@H]1OC(=O)Nc1ccc2c(c1)OCO2 , which z-score bin applies?
High
